Test system: NRG-mice bearing LNCaP tumors
Experiment: Biodistribution (and PET/SPECT imaging) in NRG-mice bearing LNCaP tumors
Assay type: in vivo
Conditions: 3 h p.i., Avg
*1 amine or outer side, *2 acyl side, *3 side chain or, on linkers, in order; H or OH if unused. Where a SMILES comes first, the peptide text is derived from it. [ ]: non-standard residue; d: D form. The star is where a group is joined. ξ: configuration not given here. ξLys(Nα-CO-ξAad) = O=C(O)CCCC(NC(=O)NC(CCCCN*)C(=O)O)C(=O)O; Butanoyl(4-(4-NO2Ph)) = O=C(CCCc1ccc([N+](=O)[O-])cc1)*; DOTA = O=C(O)CN1CCN(CC(=O)O)CCN(CC(=O)*)CCN(CC(=O)O)CC1; Butanoyl(4-(4-MeO-phenyl)) = COc1ccc(CCCC(=O)*)cc1; ξAla(9-anthryl) = NC(Cc1c2ccccc2cc2ccccc12)C(=O)O; X2 = O=C(NC(CCCCN*)C(=O)O)NC(CC(F)C(=O)O)C(=O)O; X1 = O=C(C1CCC(CN[*:1])CC1)[*:2]; ξK = NCCCCC(N)C(=O)O
parameter: Biodistribution: Testes (% ID/g)
The reply should contain only the number, in % ID/g.

Example entries and their recorded answers appear below.
O=C([O-])CN1CCN(CC(=O)[O-])CCN(CC(=O)NCCCCC(NC(=O)CNC(=O)CCCc2ccc([N+](=O)[O-])cc2)C(=O)NCC(=O)NCC2CCC(C(=O)NC(Cc3c4ccccc4cc4ccccc34)C(=O)NCCCCC(NC(=O)NC(CC(F)C(=O)O)C(=O)O)C(=O)O)CC2)CCN(CC(=O)[O-])CC1.[68Ga+3] (stereo not drawn) [^68Ga-CCZ02025] ({Butanoyl(4-(4-NO2Ph))}-G[ξK](DOTA)G[X1][ξAla(9-anthryl)]-X2) : 2.80
COc1ccc(CCCC(=O)NCC(=O)NC(CCCCNC(=O)CN2CCN(CC(=O)[O-])CCN(CC(=O)[O-])CCN(CC(=O)[O-])CC2)C(=O)NCC(=O)NCC2CCC(C(=O)NC(Cc3c4ccccc4cc4ccccc34)C(=O)NCCCCC(NC(=O)NC(CCCC(=O)O)C(=O)O)C(=O)O)CC2)cc1.[68Ga+3] (stereo not drawn) [^68Ga-CCZ02009] ({Butanoyl(4-(4-MeO-phenyl))}-G[ξK](DOTA)G[X1][ξAla(9-anthryl)]-{ξLys(Nα-CO-ξAad)}) : 2.28

QUERY: Param item = O=C([O-])CN1CCN(CC(=O)[O-])CCN(CC(=O)NCCCCC(NC(=O)CNC(=O)CCCc2ccc([N+](=O)[O-])cc2)C(=O)NCC(=O)NCC2CCC(C(=O)NC(Cc3c4ccccc4cc4ccccc34)C(=O)NCCCCC(NC(=O)NC(CCCC(=O)O)C(=O)O)C(=O)O)CC2)CCN(CC(=O)[O-])CC1.[177Lu+3] (stereo not drawn) [^177Lu-CCZ02017] ({Butanoyl(4-(4-NO2Ph))}-G[ξK](DOTA)G[X1][ξAla(9-anthryl)]-{ξLys(Nα-CO-ξAad)}) ; retrieve measured Biodistribution: Testes.
RESULT: 6.56

QUERY: Repeat with COc1ccc(CCCC(=O)NCC(=O)NC(CCCCNC(=O)CN2CCN(CC(=O)[O-])CCN(CC(=O)[O-])CCN(CC(=O)[O-])CC2)CC(=O)NCC2CCC(C(=O)NC(Cc3c4ccccc4cc4ccccc34)C(=O)NCCCCC(NC(=O)NC(CCCC(=O)O)C(=O)O)C(=O)O)CC2)cc1.[68Ga+3] (stereo not drawn) [^68Ga-CCZ02015]
RESULT: 2.07

QUERY: Repeat with COc1ccc(CCCC(=O)NCC(=O)NC(CCCCNC(=O)CN2CCN(CC(=O)[O-])CCN(CC(=O)[O-])CCN(CC(=O)[O-])CC2)CC(=O)NCC2CCC(C(=O)NC(Cc3c4ccccc4cc4ccccc34)C(=O)NCCCCC(NC(=O)NC(CC(F)C(=O)O)C(=O)O)C(=O)O)CC2)cc1.[177Lu+3] (stereo not drawn) [^177Lu-CCZ02019]
RESULT: 2.55

QUERY: Repeat with O=C([O-])CN1CCN(CC(=O)[O-])CCN(CC(=O)NCCCCC(NC(=O)CNC(=O)CCCc2ccc([N+](=O)[O-])cc2)C(=O)NCC(=O)NCC2CCC(C(=O)NC(Cc3c4ccccc4cc4ccccc34)C(=O)NCCCCC(NC(=O)NC(CCCC(=O)O)C(=O)O)C(=O)O)CC2)CCN(CC(=O)[O-])CC1.[225Ac+3] (stereo not drawn) [^225Ac-CCZ02017] ({Butanoyl(4-(4-NO2Ph))}-G[ξK](DOTA)G[X1][ξAla(9-anthryl)]-{ξLys(Nα-CO-ξAad)})
RESULT: 2.73
